Would you mind telling me the reported Te % (SEM) 4 h of each entry?
# System: HBMEC monolayer
# CONDITION_LABEL: matrix ASFE extract 24 µg/mL, 4 h incubation; n.d = not detected in lower compartment

Below are worked cases with known answers.
INSERT INTO results (molecule, recorded_metric, data_value) VALUES
  ('CC1(C)C[C@@H]2C3=CC[C@@H]4[C@@]5(C)CC[C@H](O)[C@@](C)(C=O)C5CC[C@@]4(C)[C@]3(C)CC[C@@]2(C(=O)O)C[C@@H]1O (stereo partly shown)', 'Te % (SEM) 4 h', '25.3 (0.7) %'),
  ('COc1cc(/C=C/C(=O)O)ccc1O', 'Te % (SEM) 4 h', '9.1 (0.3) %'),
  ('C[C@H]1[C@H](C)CC[C@]2(C(=O)O)CC[C@]3(C)C(=CC[C@@H]4[C@@]5(C)C[C@@H](O)[C@H](O)C(C)(C)[C@@H]5CC[C@]43C)[C@H]12', 'Te % (SEM) 4 h', '39.6 (1.9) %');

I would be grateful if you could provide Te % (SEM) 4 h for each of the following entries.
1. CC(CC(=O)C[C@@H](C)[C@H]1C[C@H](O)[C@@]2(C)C3=C(C(=O)C[C@]12C)[C@@]1(C)CC[C@H](O)C(C)(C)[C@@H]1CC3)C(=O)O (stereo partly shown)
2. Oc1ccc(/C=C/c2cc(O)cc3c2[C@@H](c2cc(O)cc(O)c2)[C@H](c2ccc(O)cc2)O3)cc1
3. Oc1cc(O)c2c(c1)O[C@H](c1ccc(O)c(O)c1)[C@H](O)[C@H]2c1c(O)cc(O)c2c1O[C@H](c1ccc(O)c(O)c1)[C@H](O)C2

Response:
28.6 (1.5) %
45.9 (3.0) %
61.9 (2.6) %

I would be grateful if you could provide Te % (SEM) 4 h for each of the following entries.
1. COc1cc(/C=C/C(=O)O)cc(OC)c1O
2. O=C(O)c1ccc(O)c(O)c1
3. CC(CC(=O)CC(C)C1CC(O)C2(C)C3=C(C(=O)CC12C)C1(C)CCC(O)C(C)(CO)C1CC3)C(=O)O (stereo not shown)
4. O=C1c2c(O)cc(O)cc2O[C@H](c2ccc(O)cc2)[C@H]1O
5. COc1cc(C(=O)O)ccc1O
6. O=C(O)c1cc(O)c(O)c(O)c1
7. O=Cc1ccc(O)c(O)c1

Response:
1: 44.4 (3.2)/18.6 (0.5) %; 2: 71.7 (3.2) %; 3: 15.6 (0.3) %; 4: 78.7 (0.7) %; 5: 42.2 (0.7) %; 6: 62.9 (0.3)/67.9(1.3) %; 7: 78.2 (5.7) %

I would be grateful if you could provide Te % (SEM) 4 h for each of the following entries.
1. O=C(/C=C/c1ccc(O)c(O)c1)c1ccc(O)cc1O
2. CCC(O)C1CC(C)C2(CC(=O)C3(C)C4=C(CCC32C)C2(C)CCC(=O)C(C)(CO)C2CC4)O1 (stereo not shown)
3. COc1cc(C=O)cc(OC)c1O

Response:
["36.3 (2.6) %", "82.9 (5.3) %", "45.7 (3.2)/42.0 (1.4) %"]

====

# System: HBMEC monolayer
# CONDITION_LABEL: human
RECORDED_METRIC: Te % (SEM) 2 h

Below are worked cases with known answers.
INSERT INTO measurements (compound, recorded_metric, data_value) VALUES
  ('C=CC(C)(O)CCC=C(C)CCC=C(C)C (mixture of isomers)', 'Te % (SEM) 2 h', '30.1 (2.5) %'),
  ('C[C@H]1[C@H](C)CC[C@]2(CO)CC[C@]3(C)C(=CC[C@@H]4[C@@]5(C)CC[C@H](O)C(C)(C)[C@@H]5CC[C@]43C)[C@H]12 (single isomer, unassigned) [Uvaol Isomer II, Uvaol]', 'Te % (SEM) 2 h', '17.7 (1.0) %'),
  ('O=C(O)C=Cc1ccc(O)cc1', 'Te % (SEM) 2 h', '9.1 (0.6) %');

Now examine the next entry.
Lab entry: HBMEC monolayer assay, compound CC1(C)CCCC2(C)OC(=O)C=C12 (stereo not shown) [Dihydroactinidiolide] , Te % (SEM) 2 h = 42.2 (3.5) %

====

# Tested on: HBMEC monolayer
# CONDITION_LABEL: human, 2 h, 24 µg/mL
Would you mind telling me the reported Te % (SEM) 2 h of each entry?

Below are worked cases with known answers.
INSERT INTO results (smiles_string, data_value) VALUES
  ('Oc1cccc(O)c1O', '37.6 (2.6) %'),
  ('O=c1c(O)c(-c2ccc(O)cc2)oc2cc(O)cc(O)c12', '31.5 (1.1) %'),
  ('O=C(/C=C/c1ccc(O)c(O)c1)O[C@@H](C(=O)O)[C@@H](O)C(=O)O', '46.3 (3.6) %');

I would be grateful if you could provide Te % (SEM) 2 h for each of the following entries.
1. COc1ccc([C@@H]2CC(=O)c3c(O)cc(O)cc3O2)cc1O
2. O=c1oc2c(O)c(O)cc3c(=O)oc4c(O)c(O)cc1c4c23
3. O=C(O)/C=C/c1ccc(O)c(O)c1

Response:
["65.5 (4.8) %", "42.4 (1.6) %", "55.4 (3.7) %"]

====

Would you mind telling me the reported Te % (SEM) 2 h of each entry?
# Tested on: HBMEC monolayer

Below are worked cases with known answers.
INSERT INTO assay_data (compound, recorded_metric, data_value) VALUES
  ('C=CC(C)(O)CCCC(C)CCCC(C)CCCC(C)C (stereo not drawn)', 'Te % (SEM) 2 h', '15.6 (1.0) %'),
  ('C[C@@H]1CCCC2=CC[C@@H]3[C@@H](C3(C)C)[C@]21C [(-)-Aristolene]', 'Te % (SEM) 2 h', '39.7 (0.4) %');

I would be grateful if you could provide Te % (SEM) 2 h for each of the following entries.
1. CC1=CC[C@@H](C(C)(C)O)CC1
2. CC(=O)OC(C)(C)[C@@H]1CC[C@@]2(C)CO[C@]3(C)C=CO[C@]23C1
3. CC1=C[C@@H]2C(=C(C)CC[C@H]2C(C)C)CC1
4. C=C1CCC[C@]2(C)CC[C@H]3C(C)(C)C[C@]132
5. C=C[C@]1(C)CC[C@@H](C(C)(C)O)C[C@H]1C(=C)C
6. C=CC(=C)CC/C=C(\C)CC/C=C(\C)C=O
7. O=C(/C=C/c1ccc(O)c(O)c1)OC1[C@H](O)CC(O)(C(=O)O)C[C@H]1O (stereo partly drawn)

Response:
17.6 (1.3) %
33.4 (1.5) %
21.5 (0.8) %
33.4 (1.5) %
24.6 (0.5) %
31.6 (1.2) %
15.7 (0.4) %

====

# System: HBMEC monolayer
# CONDITION_LABEL: human, 2 h, 30 µg/mL
RECORDED_METRIC: Te % (SEM) 2 h

Below are worked cases with known answers.
INSERT INTO results (smiles_string, recorded_metric, data_value) VALUES
  ('O=C(O)/C=C/c1ccc(O)c(O)c1', 'Te % (SEM) 2 h', '34.8 (1.2) %'),
  ('O=C(O)[C@]1(O)C[C@@H](O)[C@@H](O)[C@H](O)C1', 'Te % (SEM) 2 h', '20.1 (1.6) %'),
  ('O=c1c(O[C@@H]2O[C@H](CO)[C@@H](O)[C@H](O)[C@H]2O)c(-c2ccc(O)c(O)c2)oc2cc(O)cc(O)c12', 'Te % (SEM) 2 h', '6.0 (0.2) %');

Now examine the next entry.
// Te % (SEM) 2 h value for "O=C(O)c1cc(O)c(O)c(O)c1" : 33.0 (1.9)/39.9 (1.4) %

====

Would you mind telling me the reported Te % (SEM) 2 h of each entry?
# Tested on: HBMEC monolayer
# CONDITION_LABEL: matrix ASFE extract 24 µg/mL, 2 h incubation; n.d = not detected in lower compartment

Below are worked cases with known answers.
INSERT INTO results (compound, data_value) VALUES
  ('C[C@H]1[C@H](C)CC[C@]2(C(=O)O)CC[C@]3(C)C(=CC[C@@H]4[C@@]5(C)C[C@@H](O)[C@H](O)C(C)(C)[C@@H]5CC[C@]43C)[C@H]12', '33.4 (1.9) %'),
  ('O=C(O)c1cc(O)c(O)c(O)c1', '33.0 (1.9)/39.9 (1.4) %'),
  ('COc1cc(C(=O)O)ccc1O', '38.9 (1.2) %'),
  ('COc1cc(C=O)cc(OC)c1O', '22.7 (1.5)/33.4 (2.2) %'),
  ('O=Cc1ccc(O)c(O)c1', '20.3 (1.5) %'),
  ('Oc1ccc(/C=C/c2cc(O)cc3c2[C@@H](c2cc(O)cc(O)c2)[C@H](c2ccc(O)cc2)O3)cc1', '39.2 (2.2) %'),
  ('CC1(C)C[C@@H]2C3=CC[C@@H]4[C@@]5(C)CC[C@H](O)[C@@](C)(C=O)C5CC[C@@]4(C)[C@]3(C)CC[C@@]2(C(=O)O)C[C@@H]1O (stereo partly drawn)', '7.6 (0.5) %'),
  ('O=C(/C=C/c1ccc(O)c(O)c1)c1ccc(O)cc1O', '27.5 (2.0) %'),
  ('O=C1c2c(O)cc(O)cc2O[C@H](c2ccc(O)cc2)[C@H]1O', '76.2 (0.8) %'),
  ('CCC(O)C1CC(C)C2(CC(=O)C3(C)C4=C(CCC32C)C2(C)CCC(=O)C(C)(CO)C2CC4)O1 (stereo not drawn)', '30.4 (1.7) %');

I would be grateful if you could provide Te % (SEM) 2 h for each of the following entries.
1. O=C(O)c1ccc(O)c(O)c1
2. CC(CC(=O)CC(C)C1CC(O)C2(C)C3=C(C(=O)CC12C)C1(C)CCC(O)C(C)(CO)C1CC3)C(=O)O (stereo not drawn)

Response:
45.1 (3.8) %
11.7 (0.7) %
